- System tested: rAR (aldose reductase) (Rattus norvegicus)
- Construct: The rat lens homogenate was prepared according to Hayman and Kinoshita with some modifications; from tissue; host or cells: rat lens (male Sprague-Dawley rats)
- Protocol summary: HPLC microfractionation combined with 96-well enzyme assay for rAR inhibition
- Format: biochemical
- Condition description: HPLC microfractions of EtOAc soluble fraction (10 μL of 10 mg/mL injected), 96-well plate; hit limit 18.49%
Recorded rAR inhibitory activity in the corresponding wells values for a group of compounds are listed next.
Express it in %; write the number only.

The following compounds have reported results that may help.
{"Smiles record": "O=C(/C=C/c1ccc(O)c(O)c1)O[C@@H]1C[C@](O)(C(=O)O)C[C@@H](O)[C@H]1O", "System tested": "rAR (aldose reductase) (Rattus norvegicus)", "Data value": 34.50}
{"Smiles record": "O=C(O)/C=C/c1ccc(O)c(O)c1", "System tested": "rAR (aldose reductase) (Rattus norvegicus)", "Data value": 21.31}
{"Smiles record": "O=c1cc(-c2ccc(O)c(O)c2)oc2cc(O)cc(O)c12", "System tested": "rAR (aldose reductase) (Rattus norvegicus)", "Data value": 29.46}
{"Smiles record": "O=C(O)c1ccc(O)c(O)c1", "System tested": "rAR (aldose reductase) (Rattus norvegicus)", "Data value": 20.46}
{"Smiles record": "O=C(/C=C/c1ccc(O)c(O)c1)O[C@H](Cc1ccc(O)c(O)c1)C(=O)O", "System tested": "rAR (aldose reductase) (Rattus norvegicus)", "Data value": 53.31}

Determine from records and report rAR inhibitory activity in the corresponding wells for "COC(=O)[C@@H](Cc1ccc(O)c(O)c1)OC(=O)/C=C/c1ccc(O)c(O)c1"
22.94

###

- System tested: rAR (rat lens aldose reductase) (Rattus norvegicus)
- Protocol summary: Assay for rAR inhibitory activity (NADPH absorption decrease at 340 nm, DL-glyceraldehyde substrate)
- Assay type: biochemical
- Condition description: concentration at 50% inhibition; crude rat lens AR, pH 6.2; read-out: IC50 on rAR (isolated compounds)
Endpoint: IC50 (nM)
Express it in nM; write the number only.

Under rAR (rat lens aldose reductase) (Rattus norvegicus), report IC50 for O=C(/C=C/c1ccc(O)c(O)c1)O[C@H](Cc1ccc(O)c(O)c1)C(=O)O [Compound 4, rosmarinic acid]
2770
